Target: Nitric oxide synthase, inducible (Homo sapiens)
Sequence (P35228 whole entry): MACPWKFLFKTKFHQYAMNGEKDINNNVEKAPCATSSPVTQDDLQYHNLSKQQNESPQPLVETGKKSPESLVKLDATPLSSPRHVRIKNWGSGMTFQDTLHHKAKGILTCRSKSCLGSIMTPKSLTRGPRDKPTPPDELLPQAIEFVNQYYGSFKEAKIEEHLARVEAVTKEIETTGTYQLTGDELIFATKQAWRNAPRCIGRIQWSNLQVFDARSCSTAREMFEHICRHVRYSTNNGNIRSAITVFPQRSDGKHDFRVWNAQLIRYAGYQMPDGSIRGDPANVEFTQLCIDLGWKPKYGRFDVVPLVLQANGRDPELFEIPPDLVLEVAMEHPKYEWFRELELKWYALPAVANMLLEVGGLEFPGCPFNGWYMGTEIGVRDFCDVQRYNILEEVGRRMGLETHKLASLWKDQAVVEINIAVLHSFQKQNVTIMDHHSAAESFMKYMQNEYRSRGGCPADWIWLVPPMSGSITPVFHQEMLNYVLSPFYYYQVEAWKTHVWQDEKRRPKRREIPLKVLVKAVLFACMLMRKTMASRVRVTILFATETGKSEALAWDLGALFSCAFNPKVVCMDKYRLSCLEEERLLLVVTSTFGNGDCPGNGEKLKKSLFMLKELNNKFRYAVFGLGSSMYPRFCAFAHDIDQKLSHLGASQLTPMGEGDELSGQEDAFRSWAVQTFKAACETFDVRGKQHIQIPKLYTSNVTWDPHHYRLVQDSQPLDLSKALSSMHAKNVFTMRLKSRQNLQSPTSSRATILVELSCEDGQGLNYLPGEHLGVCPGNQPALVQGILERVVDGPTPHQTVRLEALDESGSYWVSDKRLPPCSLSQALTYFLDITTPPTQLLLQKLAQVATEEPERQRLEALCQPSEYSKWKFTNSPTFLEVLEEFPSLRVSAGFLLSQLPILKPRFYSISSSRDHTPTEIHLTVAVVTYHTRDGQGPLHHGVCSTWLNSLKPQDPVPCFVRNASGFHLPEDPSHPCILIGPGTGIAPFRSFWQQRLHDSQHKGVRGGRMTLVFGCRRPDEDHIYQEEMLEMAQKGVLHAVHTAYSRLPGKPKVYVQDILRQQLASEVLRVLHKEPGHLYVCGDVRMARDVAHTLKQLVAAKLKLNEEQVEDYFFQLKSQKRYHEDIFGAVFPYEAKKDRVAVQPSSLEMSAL
Test: Tested to inhibit the conversion of [3H]L-arginine to [3H]L-citrulline catalyzed by inducible NOS from human DLD-1 cells.
Format: cell-based
Experimental endpoint: IC50

{"columns": ["Chemical smiles", "Experimental endpoint", "Result"],
 "data": [
  ["O=[N+]([O-])c1cccc2cn[nH]c12", "IC50", "24 µM"],
  ["Nc1nc2ccccc2n1N", "IC50", "25 µM"],
  ["N=C(N)NN", "IC50", "54 µM"]
]}

====

Biological target: UniProt P29476
Sequence (P29476 whole entry): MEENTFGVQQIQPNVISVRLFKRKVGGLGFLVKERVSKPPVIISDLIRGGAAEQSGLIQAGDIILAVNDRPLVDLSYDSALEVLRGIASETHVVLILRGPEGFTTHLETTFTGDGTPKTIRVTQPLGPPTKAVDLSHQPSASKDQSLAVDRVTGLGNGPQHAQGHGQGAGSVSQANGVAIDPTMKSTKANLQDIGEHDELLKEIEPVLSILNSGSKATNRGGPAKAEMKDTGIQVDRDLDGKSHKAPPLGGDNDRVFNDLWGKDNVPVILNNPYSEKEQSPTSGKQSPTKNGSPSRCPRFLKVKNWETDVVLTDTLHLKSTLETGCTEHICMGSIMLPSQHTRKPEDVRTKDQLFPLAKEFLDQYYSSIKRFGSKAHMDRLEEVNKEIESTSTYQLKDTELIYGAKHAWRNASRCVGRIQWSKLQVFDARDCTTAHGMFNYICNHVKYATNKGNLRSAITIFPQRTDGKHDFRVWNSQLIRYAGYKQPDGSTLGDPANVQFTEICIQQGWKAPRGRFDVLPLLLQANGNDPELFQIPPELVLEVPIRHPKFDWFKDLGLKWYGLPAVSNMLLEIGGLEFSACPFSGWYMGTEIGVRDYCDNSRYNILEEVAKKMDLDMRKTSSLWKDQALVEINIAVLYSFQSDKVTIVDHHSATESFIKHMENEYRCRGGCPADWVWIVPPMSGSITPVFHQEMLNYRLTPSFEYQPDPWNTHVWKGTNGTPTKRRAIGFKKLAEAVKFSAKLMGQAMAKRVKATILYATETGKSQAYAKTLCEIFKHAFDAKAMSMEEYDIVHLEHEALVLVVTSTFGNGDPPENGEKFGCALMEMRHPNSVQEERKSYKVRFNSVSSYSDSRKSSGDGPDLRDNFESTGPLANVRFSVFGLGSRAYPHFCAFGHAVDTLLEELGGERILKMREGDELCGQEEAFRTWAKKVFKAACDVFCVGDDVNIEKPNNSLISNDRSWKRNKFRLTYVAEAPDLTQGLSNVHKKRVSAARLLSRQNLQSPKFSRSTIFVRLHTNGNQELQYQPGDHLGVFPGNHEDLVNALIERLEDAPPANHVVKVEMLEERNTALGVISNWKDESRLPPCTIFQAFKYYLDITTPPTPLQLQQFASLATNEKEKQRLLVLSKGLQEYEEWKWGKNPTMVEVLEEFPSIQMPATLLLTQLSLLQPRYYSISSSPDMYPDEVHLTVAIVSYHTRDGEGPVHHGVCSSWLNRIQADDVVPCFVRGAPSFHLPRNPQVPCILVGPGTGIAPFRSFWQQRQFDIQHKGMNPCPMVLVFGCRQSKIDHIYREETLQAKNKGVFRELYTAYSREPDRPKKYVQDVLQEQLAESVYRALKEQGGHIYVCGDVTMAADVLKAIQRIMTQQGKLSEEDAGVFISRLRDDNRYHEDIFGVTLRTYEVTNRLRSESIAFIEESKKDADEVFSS
Assay: Tested to inhibit the conversion of [3H]L-arginine to [3H]L-citrulline catalyzed by neuronal NOS from rat cerebellum.
Type: tissue-based

{"columns": ["Chemical smiles", "IC50 (µM)"],
 "data": [
  ["CNn1c(N)nc2ccccc21", 5.8],
  ["Nc1nc2ccccc2n1N", 77]
]}

====

Known pIC50 of a selection of molecules
Target: Nitric oxide synthase, inducible (Mus musculus)
Sequence (P29477 whole entry): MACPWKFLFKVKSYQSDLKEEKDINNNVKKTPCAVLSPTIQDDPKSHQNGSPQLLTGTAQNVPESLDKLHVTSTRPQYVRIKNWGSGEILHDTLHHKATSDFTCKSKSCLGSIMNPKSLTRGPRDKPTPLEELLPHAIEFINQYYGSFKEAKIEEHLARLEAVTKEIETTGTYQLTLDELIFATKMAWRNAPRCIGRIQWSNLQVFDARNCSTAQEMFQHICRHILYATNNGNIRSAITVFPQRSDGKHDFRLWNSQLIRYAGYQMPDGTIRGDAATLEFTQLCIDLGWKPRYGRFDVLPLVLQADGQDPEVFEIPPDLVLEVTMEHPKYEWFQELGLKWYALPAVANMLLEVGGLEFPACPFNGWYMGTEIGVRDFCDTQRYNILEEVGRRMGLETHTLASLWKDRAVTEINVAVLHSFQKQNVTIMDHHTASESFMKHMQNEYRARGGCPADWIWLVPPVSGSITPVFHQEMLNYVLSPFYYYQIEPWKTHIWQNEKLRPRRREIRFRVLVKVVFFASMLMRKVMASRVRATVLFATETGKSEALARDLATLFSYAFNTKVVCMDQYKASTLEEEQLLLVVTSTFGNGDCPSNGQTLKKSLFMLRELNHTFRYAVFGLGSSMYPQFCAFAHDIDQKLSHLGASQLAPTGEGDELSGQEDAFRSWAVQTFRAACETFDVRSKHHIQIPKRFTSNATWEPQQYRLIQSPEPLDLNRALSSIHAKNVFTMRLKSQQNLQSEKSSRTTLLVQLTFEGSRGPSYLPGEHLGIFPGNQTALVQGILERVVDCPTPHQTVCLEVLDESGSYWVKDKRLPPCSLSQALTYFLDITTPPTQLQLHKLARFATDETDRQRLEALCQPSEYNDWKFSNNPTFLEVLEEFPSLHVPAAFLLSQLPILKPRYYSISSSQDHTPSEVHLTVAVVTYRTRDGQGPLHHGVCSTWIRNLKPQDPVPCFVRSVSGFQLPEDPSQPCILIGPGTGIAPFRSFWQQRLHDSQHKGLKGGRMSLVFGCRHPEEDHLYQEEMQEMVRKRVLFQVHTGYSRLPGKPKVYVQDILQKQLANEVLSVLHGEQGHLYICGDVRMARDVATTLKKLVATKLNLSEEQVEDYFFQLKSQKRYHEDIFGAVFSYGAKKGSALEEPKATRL
Experiment: Tested to inhibit the conversion of [3H]L-arginine to [3H]L-citrulline catalyzed by inducible NOS from mouse macrophage J774 cells
Assay type: cell-based
pIC50: −log10 of the molar value.

{"columns": ["Molecule", "pIC50"],
 "data": [
  ["Nc1nc2ccccc2n1N", 4.51],
  ["N=C(N)NN [PIMAGEDINE]", 5.05],
  ["O=[N+]([O-])c1cccc2cn[nH]c12 [7-NITROINDAZOLE]", 4.70]
]}
